Kindly supply the reported ka values for the records listed here.
Target: P. falciparum Grp94 (Plasmodium falciparum)
Sequence (Q8I0V4 entry or part of it): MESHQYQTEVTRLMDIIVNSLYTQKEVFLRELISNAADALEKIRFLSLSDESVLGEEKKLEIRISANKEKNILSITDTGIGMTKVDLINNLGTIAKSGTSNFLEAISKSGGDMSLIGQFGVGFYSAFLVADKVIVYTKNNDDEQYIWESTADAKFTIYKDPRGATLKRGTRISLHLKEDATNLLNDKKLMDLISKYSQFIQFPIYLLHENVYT
Assay: biochemical
Format: binding
Conditions: SPR, 25 °C
One number for each entry, in M⁻¹ s⁻¹.

compound="CC(C)NCCCn1c(Sc2cc(Cl)cc(Cl)c2)nc2c(N)ncnc21 [PUWS13]" measured_number=149
compound="CC(C)c1cc(C(=O)N2Cc3ccc(CN4CCN(C)CC4)cc3C2)c(O)cc1O [AT13387]" measured_number=216
compound="Nc1ncnc2c1ncn2[C@@H]1O[C@H](COP(=O)(O)OP(=O)(O)O)[C@@H](O)[C@H]1O [ADP]" measured_number=1360
compound="CC1(C)CC(=O)c2c(C(F)(F)F)nn(-c3ccc(C(N)=O)c(N[C@H]4CC[C@H](O)CC4)c3)c2C1 [SNX-2112]" measured_number=4720

Pending compound:
Request the reported ka associated with CC(C)c1cc(-c2n[nH]c(=O)n2-c2ccc3c(ccn3C)c2)c(O)cc1O [STA-9090]
1.7e+06

The origin of these recorded values is paper PMC5518105.
